Target: T1, EBV minimal peptide PPSTSSKLRPRWTFT (spotted for dot blot) (Human herpesvirus 4 (Epstein-Barr …))
T1 construct: also called EBV gp350 minimal peptide; 72153; source: "recombinant peptide" spotted on nitrocellulose
T1 chain: PPSTSSKLRPRWTFT
Assay: far-Western, overlay or dot blot
Details: one partner purified
Assay Readout: binding result

- Binder: "EBV_c98 (antibody, V domains shown, recombinant human IgG) VH: QVQLVESGGGVVQPGRSLRLSCAASGITLSSYGMHWVRQAPGKGLEWVAVISYDGSKKDYGDSVKGRFTISRDNFKNTLYLQMSSLRAEDTAVYYCAKDTIFDGMDVWGQGTTVTVSS VL: DVVMTQSPLSLPGTLGQPASISCRSSQSLVYSDGNTYLNWFQQRPGQSPRRLIYQVSNRDSGVPDRFSGSGSGTDFTLTISKVEAEDVGVYYCMQSTHWPLTFGGGTKVEIK"
  Assay Readout: "binding result"
  Data Value: "binds"
- Binder: "EBV_c150 (antibody, V domains shown, recombinant human IgG) VH: QVLLVQSGAEVRKPGASVKLSCTASGYNFTNYYIHWVRQAPGQGLEWMGILNPTGGGTIYPHNFRGRVTMTRETSTSTAYMELKNLTSDDTAVYYCARVPPDDGYFDYWGQGALVTVSS VL: SYEPTQPPSVSVSPGQTARITCSGDALPKRYVYWYQQKSGQAPALVIYDDTKRPSGIPERFSGSSSGTMATLTINGAQVEDEADYYCYTTGSSVSHVVFGGGTKLTVL"
  Assay Readout: "binding result"
  Data Value: "binds"
- Binder: "EBV_c3 (antibody, V domains shown, recombinant human IgG; source: Expi293 or ExpiCHO, recombinant; filtered culture supernatant) VH: QVHLVQSGAEVKKSGASVKVSCKASGFTFTNHDINWVRQAPGQGLEWMGWINPNSGNTGFAQKFRGRVTLTRNNSITTAYMELRGLTYEDTAIYYCARAFCNSDRCSPELFDPWGQGTLVTVSS VL: QSVLTQPPSVSADPGQRVTISCSGSSSNIGNSYVSWYQQLPGTAPRFLIYDNNKRTSGIPDRFSGSKSGTSATLAITGLQTGDEADYYCATWDTSLRGVVFGGGTKLTVL"
  Assay Readout: "binding result"
  Data Value: "binds"
